This section presents sequences with their documented protein stability index values.
assay-method-text: protein stability index of a GFP-peptide fusion (yeast GPS) (PSI 1-4); higher = more stable; sorted into four equal gates, so the index is relative within each strain
experimental-context: pdr5∆
recorded-endpoint: protein stability index

>  <input-sequence>
KFKHIDDKYGRKFALEK [SRP72]

>  <recorded-endpoint>
protein stability index

>  <data-value>
2.81

$$$$
>  <input-sequence>
RTMLELITQLDGFDPRG [RPT1]

>  <recorded-endpoint>
protein stability index

>  <data-value>
2.81

$$$$
>  <input-sequence>
VKYINFGKTVKDGPFYT [RPC31]

>  <recorded-endpoint>
protein stability index

>  <data-value>
2.84

$$$$
>  <input-sequence>
TLVKGPKEPRLKSQMDT [SKI6]

>  <recorded-endpoint>
protein stability index

>  <data-value>
3.05

$$$$
>  <input-sequence>
VAIQQGDIKPEFSPRLH [YML103C/NUP188]

>  <recorded-endpoint>
protein stability index

>  <data-value>
2.84

$$$$
>  <input-sequence>
EGHDWKAPTKLDDPEAV [DIS3]

>  <recorded-endpoint>
protein stability index

>  <data-value>
3.28

$$$$
>  <input-sequence>
VLPLGSVPEGTIVSNVE [RPL2A]

>  <recorded-endpoint>
protein stability index

>  <data-value>
3.33

$$$$
>  <input-sequence>
KAPEQFIENFLTNDTFE [YML103C/NUP188]

>  <recorded-endpoint>
protein stability index

>  <data-value>
3.16

$$$$
>  <input-sequence>
FIYDTEKNGGLGWDLDA [FAS2]

>  <recorded-endpoint>
protein stability index

>  <data-value>
2.96

$$$$
>  <input-sequence>
QPTGLLKGLNGFPSAPQ [YMR153W/NUP53]

>  <recorded-endpoint>
protein stability index

>  <data-value>
3.3

$$$$
>  <input-sequence>
IDEDKLYPSFKPIYKDT [SSN2]

>  <recorded-endpoint>
protein stability index

>  <data-value>
3.04

$$$$
>  <input-sequence>
IIVFGYPESISNELIEH [YDL088C/ASM4]

>  <recorded-endpoint>
protein stability index

>  <data-value>
2.78

$$$$
>  <input-sequence>
YIEDGRNPDIYTREFVE [NUT2]

>  <recorded-endpoint>
protein stability index

>  <data-value>
3.38

$$$$
>  <input-sequence>
IYNSASKASMQKEQNVN [YCS4]

>  <recorded-endpoint>
protein stability index

>  <data-value>
2.11

$$$$
>  <input-sequence>
VEYVDPTVNRVPNYEVS [RPN7]

>  <recorded-endpoint>
protein stability index

>  <data-value>
3.2

$$$$
>  <input-sequence>
LFVFTEGWPKFQDTLYK [QCR10]

>  <recorded-endpoint>
protein stability index

>  <data-value>
2.91

$$$$
>  <input-sequence>
KTMIKTIEKDKMKIQET [SMC2]

>  <recorded-endpoint>
protein stability index

>  <data-value>
1.86

$$$$
>  <input-sequence>
TVKLYLPEILNVLCVNI [ECM29]

>  <recorded-endpoint>
protein stability index

>  <data-value>
1.49

$$$$
>  <input-sequence>
RGREEAASFKKLYKTPI [PRE10]

>  <recorded-endpoint>
protein stability index

>  <data-value>
3.06

$$$$
>  <input-sequence>
SYNWGAKAKRRHTTGTG [RPL37A]

>  <recorded-endpoint>
protein stability index

>  <data-value>
3.15

$$$$
>  <input-sequence>
KKDQSVLKSHSNDFEEG [YMR129W/POM152]

>  <recorded-endpoint>
protein stability index

>  <data-value>
2.99

$$$$
>  <input-sequence>
VMTISSLEQRTLNPDLF [RPC82]

>  <recorded-endpoint>
protein stability index

>  <data-value>
3.1

$$$$
>  <input-sequence>
VEDTLHVNKRKRVSGTS [YOR098C/NUP1]

>  <recorded-endpoint>
protein stability index

>  <data-value>
1.92

$$$$
>  <input-sequence>
NALTVGDFDKFDSLIKV [RPN9]

>  <recorded-endpoint>
protein stability index

>  <data-value>
1.59

$$$$
